- target-desc: T1, human CD64 (recombinant) (human, UniProt P12314 16-288)
- T1 chain: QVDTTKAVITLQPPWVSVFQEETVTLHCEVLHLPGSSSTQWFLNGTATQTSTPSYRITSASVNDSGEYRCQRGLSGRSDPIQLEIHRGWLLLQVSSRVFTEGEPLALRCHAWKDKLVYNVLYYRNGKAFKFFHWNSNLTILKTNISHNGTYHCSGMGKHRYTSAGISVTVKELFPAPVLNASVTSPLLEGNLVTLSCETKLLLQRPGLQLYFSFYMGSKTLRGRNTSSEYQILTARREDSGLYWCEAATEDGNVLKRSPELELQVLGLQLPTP
- assay-procedure: BLI; 50 nM CD64
property-measured: Kd
Record the result as a number with its unit.

# Kd (binder: XGYVNSCLLLPNLLGCGDD (not fully specified; X1 is K, Ac-K(azido), or absent (azide clicked to DBCO-peg4-biotin); disulfide bond between C7 and C16; C-terminal amidation present or absent) [CP-33(N-term "Y" insertion mutant)-linker-biotin conjugate] ) is 17.9 nM

Data origin, for the record: patent US20240083971A1
